Target: Cytochrome P450 3A4 (Homo sapiens)
Assay: Cytochrome panel assay with activity outcomes
Conditions: recombinant CYP, pro-luciferin dealkylation, luminescence, p450-cyp3a4; series mostly up to 57.1 µM
The campaign covered roughly 16,000 compounds. About 5,100 (32%) were called active. About 25% were inconclusive and are not listed. The call rests on the fitted dose curve; in most records, active means well fitted curve in the direction sought with a large enough effect; inconclusive means small, poorly fitted or top-dose-only effect, or effect the other way; inactive means no such curve, though single readings can be large or run the other way. Some of the results follow.
Returns: one label drawn from active, inactive

Request: What outcome does the record of this test show for CC[C@]1(C)CC(=O)NC1=O ?
Result: inactive

Request: What outcome does the record of this test show for Cc1cnc(CNc2cc(-c3ccoc3)ncn2)cn1 ?
Result: inactive

Request: What outcome does the record of this test show for Cc1noc(C)c1-c1cc(NCc2ccccc2)ncn1 ?
Result: inactive

Request: What outcome does the record of this test show for COc1ccc(NC(=O)N2CC3(CCN(S(C)(=O)=O)CC3)C2)cc1 ?
Result: inactive

Request: What outcome does the record of this test show for CC(C)NC(=O)N1CC[C@@]2(CCCN(S(C)(=O)=O)C2)C1 ?
Result: inactive

Request: What outcome does the record of this test show for Cc1cccc(CNc2cc(-c3ccc(N(C)C)cc3)ncn2)c1 ?
Result: active

---

Target: Cytochrome P450 3A4 (Homo sapiens)
Test: Cytochrome panel assay with activity outcomes
Conditions: recombinant CYP, pro-luciferin dealkylation, luminescence, p450-cyp3a4; series mostly up to 57.1 µM
About 5,100 (32%) of roughly 16,000 compounds were called active. Inconclusive results (about 25%) are left out. The call rests on the fitted dose curve; in most records, active means well fitted curve in the direction sought with a large enough effect; inconclusive means small, poorly fitted or top-dose-only effect, or effect the other way; inactive means no such curve, though single readings can be large or run the other way. The list shows a part of the results.
Returns: one label drawn from active, inactive

>>> print(df.to_string())
                                   compound     group
0  Nc1nc2c(nc(Br)n2[C@@H]2O[C@H]3COP(=O)(O)O[C@@H]3[C@H]2O)c(=O)[nH]1  inactive
1  O=C(c1ccccc1)[C@@H]1O[C@H]1c1ccc(-c2ccccc2)cc1  inactive
2  Cc1csc(NC(=O)CCNS(=O)(=O)c2ccc3c(c2)c(=O)n(C)c(=O)n3C)n1    active

Request: What outcome does the record of this test show for CC(C)NC(=O)/C(=N\O)c1ccccc1 ?
Result: inactive

Request: What outcome does the record of this test show for Cn1c(=O)n(C)c2cc(S(=O)(=O)O)ccc21 ?
Result: inactive

Request: What outcome does the record of this test show for Cn1c(=O)c2cc(S(=O)(=O)NCCC(=O)NCc3ccccc3Cl)ccc2n(C)c1=O ?
Result: active

Request: What outcome does the record of this test show for CCOc1ccc(NC(=O)CCNS(=O)(=O)c2ccc3c(c2)c(=O)n(C)c(=O)n3C)cc1 ?
Result: active

Request: What outcome does the record of this test show for CC1CCN(c2ccc(S(=O)(=O)Nc3cc(C(=O)O)cc(C(=O)O)c3)cc2[N+](=O)[O-])CC1 ?
Result: active

Request: What outcome does the record of this test show for CCC/C=C(\CCC)C(NC(=O)c1ccccc1)c1ccccc1 (stereo not given) ?
Result: active

Request: What outcome does the record of this test show for COC(=O)c1cc(NS(=O)(=O)c2ccc(N3CCCCCC3)c([N+](=O)[O-])c2)cc(C(=O)OC)c1 ?
Result: active

---

Target: Cytochrome P450 3A4 (Homo sapiens)
Test: Cytochrome panel assay with activity outcomes; on activity, negative = inhibition: on the % scale 0 is the no-effect control and ±100 the full control effect
Settings: recombinant CYP, pro-luciferin dealkylation, luminescence, p450-cyp3a4; series mostly up to 57.1 µM
Hit rate of the full screen: of about 16,000 compounds, about 5,100 (32%) were called active. Not shown: some 25% with an inconclusive outcome. This is one part of the list.
Overview of recorded activity, negative = inhibition for various molecules

The molecule listed as O=[N+]([O-])c1ccc(C2=Nn3c(nnc3-c3ccc(Cl)cc3)SC2)o1 shows activity, negative = inhibition equal to -12.1% [at 11.4 µM] (inactive)

The molecule listed as O=C(O)c1ccccc1-c1ccccc1C(=O)Nc1ccc2c(c1)Cc1cc(F)ccc1-2 shows activity, negative = inhibition equal to -16.4% [at 11.4 µM] (inactive)

The molecule listed as O=C(NNC(=S)NC(=O)c1cccnc1)c1ccccc1 shows activity, negative = inhibition equal to 1.97% [at 2.29 µM] (inactive)

The molecule listed as CC(=O)Nc1cccc(C(=O)OC(C(=O)c2ccc(C)c(C)c2)c2ccccc2)c1 (centres undefined) shows activity, negative = inhibition equal to 8% [at 2.29 µM] (inactive)

The molecule listed as O=C(O)/C(Cc1ccc([N+](=O)[O-])cc1)=N/O shows activity, negative = inhibition equal to -11.6% [at 11.4 µM] (inactive)

The molecule listed as O=C(Nc1cccc2cccnc12)[C@@H]1[C@@H](C(=O)O)[C@H]2CC[C@@H]1O2 shows activity, negative = inhibition equal to -18.7% [at 11.4 µM] (inactive)

The molecule listed as CC12CC[C@@H]3c4ccc(OP(=O)(O)O)cc4CCC3C1CCC2=O (some centres undefined) shows activity, negative = inhibition equal to 5.91% [at 11.4 µM] (inactive)

The molecule listed as NC(=O)CNC(=O)[C@@H]1CC2(CC(c3ccccc3)=NO2)CN1C(=O)c1ccc(Br)cc1 (some centres undefined) shows activity, negative = inhibition equal to -5.09% [at 11.4 µM] (inactive)

The molecule listed as O=C(O)CSSCC(=O)O shows activity, negative = inhibition equal to -6.12% [at 11.4 µM] (inactive)

The molecule listed as CCCCC1CCC(c2nc(-c3ccccn3)no2)CC1 (centres undefined) shows activity, negative = inhibition equal to 5.4% [at 2.29 µM] (inactive)

The molecule listed as Cc1nn(C)c(C(=O)NNC(=S)Nc2ccc(Cl)cc2)c1[N+](=O)[O-] shows activity, negative = inhibition equal to -8.67% [at 2.29 µM] (inactive)

The molecule listed as O=[N+]([O-])c1ccccc1N=Nc1c(O)[nH]c2ccc(S(=O)(=O)O)cc12 shows activity, negative = inhibition equal to -6.01% [at 11.4 µM] (inactive)
